// thresholds for logP classes: lower segment: < 1; middle segment: ≥ 1 and < 3; upper segment: ≥ 3

1. CCCCSC(C)(C)C(N)=O; middle segment
2. COP(N)(=O)Oc1cc(Cl)c(Cl)cc1Cl (stereo unspecified); middle segment
3. COC(=O)C(C#N)=NNc1cc(Cl)c(Cl)c(Cl)c1; upper segment
4. O=C1NC(=O)C(=Cc2ccc([N+](=O)[O-])o2)S1; lower segment
5. CCCCC1OC(=O)c2cc(N)ccc21 (stereo unspecified); middle segment
6. O=C(O)c1ccccc1Nc1cccc(O)c1; upper segment
7. NC(=O)/C=C/c1ccc2c(c1)OCO2; middle segment
8. COC(=O)C(C#N)=NNc1ccc(Cl)cc1C; upper segment
9. OCC1OC(OC2CCCCC2)C(O)C(O)C1O (stereo unspecified); lower segment
10. CC1=Nc2c(I)cc(Cl)cc2S(=O)(=O)N1; middle segment
11. CN(Cc1ccccc1)N=Nc1ccc(C(N)=O)cc1; middle segment
12. CCC(C)N(C)/N=N/c1nc[nH]c1C(N)=O (stereo unspecified); middle segment
13. CCCNP(=O)(OC)Oc1cc(Cl)c(Cl)cc1Cl (stereo unspecified); upper segment
14. Cc1ccc(C=C[N+](=O)[O-])cc1; middle segment
15. COC(=O)c1c(OC)cc(Cc2cnc(N)nc2N)cc1OC; lower segment
16. CCCCCCCCCC[n+]1ccc(C)cc1C.[I-]; lower segment
17. O=C(CN1CCCCC1)Nc1cccc(Cl)c1; upper segment
18. CC=CCOC(=O)C1C(C=C(C)C)C1(C)C (stereo unspecified); upper segment
19. O=C(O)c1ccccc1NCCO; middle segment
20. Cc1cc(=O)n2c(C)cccc2n1; middle segment
21. CCCN(CC)CC(F)(F)F; middle segment
22. CCOC(=O)c1cnc2ccccn2c1=O; lower segment
23. Cc1cc(-n2[nH]c(C)cc2=O)nc(C)n1; lower segment
24. COc1cc(Cc2cnc(N)nc2N)cc(O)c1O; lower segment
25. Clc1ncnc2sccc12; middle segment
26. CCCCC(C)n1nnc2ccccc21 (stereo unspecified); upper segment
27. CNc1nc(=O)cc(-c2ccc([N+](=O)[O-])o2)s1; lower segment
28. CCOC(=O)C(C#N)=NNc1cccc(Cl)c1; upper segment
29. Clc1nc2c(Cl)c(Cl)c(Cl)c(Cl)c2[nH]1; upper segment
30. COC12C(COC(N)=O)C3=C(C(=O)C(C)=C(N)C3=O)N1CC1C2N1C(=O)Cc1ccccc1 (stereo unspecified); middle segment
31. CC(=O)C(C#N)=NNc1cc(C(F)(F)F)ccc1Cl; upper segment
32. C=C(Br)CC1(C(C)CC)C(=O)NC(=O)N(C)C1=O (stereo unspecified); middle segment
33. CCC1(CC)SCC(=O)NC1=O; middle segment
34. CCCCCCCCCCCC[n+]1ccccc1C.[I-]; middle segment
35. CCOC(=O)C(=Cc1cccc(F)c1)C(=O)OCC; upper segment
36. CCCCCCCC[n+]1ccc(C)c(C)c1.[I-]; lower segment
37. O=C(CN1CCCCC1)Nc1ccc(Cl)cc1; upper segment
38. CCOC(=O)c1cnc2cccc(C)n2c1=O; lower segment
39. O=S(=O)(Nc1ccc(Cl)cc1Cl)C(F)(F)F; upper segment
40. COc1cc(Cc2cnc(N)nc2N)cc(Cl)c1OC; middle segment
41. Nc1ccc(C(O)C(CO)NC(=O)C(Cl)Cl)cc1 (stereo unspecified); lower segment
42. Cc1cc(C)cc(OC(=O)CNC(=O)c2ccccc2)c1; upper segment
43. COc1cc(Cc2cnc(N)nc2N)cc(OC)c1C(C)=O; middle segment
44. Cc1[nH]c(=O)n(O)c(=O)c1Br; lower segment
45. COc1ccc(Cc2cnc(N)nc2N)cc1; middle segment
46. Brc1ccc(N=C2NCCN2)cc1; middle segment
47. CNC(=O)NCCSCc1[nH]cnc1C; lower segment
48. CCOc1ccccc1OC(=O)NC; middle segment
49. CC1=Nc2ccc(F)cc2S(=O)(=O)N1; lower segment
50. COCN1C(=O)CN=C(c2ccccc2Cl)c2cc(Cl)ccc21; upper segment
51. Cc1c(N(C)C)cc(Cc2cnc(N)nc2N)cc1N(C)C; middle segment
52. CNC=CC(C)c1ccccn1 (stereo unspecified); middle segment
53. CCCCOn1c(=O)[nH]c(C)c(Br)c1=O; middle segment
54. O=C(NCCO)c1cccnc1; lower segment
